Record form. Attribute: melting point. Fill in for each entry.

• CCc1cccc2cc(C3C=C(c4ccc(F)cc4)NC(=S)N3)c(Cl)nc12 (stereo not shown) = 220 to 222 °C

Record melting point for all entries; do not skip any.
1. CCc1cccc2cc(C3C=C(c4cc(OC)c(OC)c(OC)c4)NC(=S)N3)c(Cl)nc12 (stereo not shown)
2. CCc1cccc2cc(-c3cc(-c4ccc(OC)cc4)[nH]c(=O)c3C#N)c(Cl)nc12
3. CCc1cccc2cc(C=CC(=O)c3cc(OC)c(OC)c(OC)c3)c(Cl)nc12

Result:
235 to 237 °C
270 to 272 °C
140 to 142 °C
